Numbers sourced from the kinase profiling compilation of Christmann-Franck et al. (2016).

Some compounds, each annotated with its measured residual activity.
Target: CDK2 CCNE1 (human) (UniProt P24941+P24864)
Sequence (P24864 whole entry, looked up, other chains not shown): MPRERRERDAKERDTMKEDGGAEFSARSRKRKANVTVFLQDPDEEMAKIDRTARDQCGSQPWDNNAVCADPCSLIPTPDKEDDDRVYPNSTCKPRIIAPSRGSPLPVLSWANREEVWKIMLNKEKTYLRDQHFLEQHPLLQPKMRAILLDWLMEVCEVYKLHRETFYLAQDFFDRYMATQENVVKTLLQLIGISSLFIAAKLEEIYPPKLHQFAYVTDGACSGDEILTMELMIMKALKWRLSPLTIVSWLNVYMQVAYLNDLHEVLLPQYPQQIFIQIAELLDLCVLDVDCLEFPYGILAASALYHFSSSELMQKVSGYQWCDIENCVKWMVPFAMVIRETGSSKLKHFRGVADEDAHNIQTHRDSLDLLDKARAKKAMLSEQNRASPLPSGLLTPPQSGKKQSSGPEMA
Experiment: radiometric filter-binding kinase assay, Kinase HotSpot
Details: compound 0.5 µM; ATP 10 µM
assay.readout: residual activity (%)

> print(dat)
                            chemical.smiles      assay.readout  scale.unit  data.value
1        Oc1ccc(Nc2nc(-c3ccc(Cl)cc3)cs2)cc1  residual activity           %        91.9
2  COc1ccc(CNC(=O)Nc2ncc([N+](=O)[O-])s2)cc1  residual activity           %        97.6
3         O=C(O)/C=C/c1cc(Br)c(Br)c(Br)c1Br  residual activity           %        89.4
4  O=C1NC(=O)C(c2c[nH]c3ccccc23)=C1c1c[nH]c2ccccc12  residual activity           %        71.4
5  CC(=O)O/N=C1\C(=C2\C(=O)Nc3cc(Br)ccc32)Nc2ccccc21  residual activity           %        24.7
6  O=C1NC(=O)C(c2cn(CCCO)c3ncccc23)=C1c1cnccn1  residual activity           %        85.1
